# assay comment: Saturation solubility in phosphate buffer
# Assay type: physicochemical
# condition set: 0.1m phosphate buffer, aqueous buffer
experimental readout: solubility

In: Item `CN1C(C(=O)Nc2ccccn2)=C(O)c2ccccc2S1(=O)=O` has what recorded solubility?
Out: ~7700 µg/mL
